pIC50, Histone deacetylase 4 (Homo sapiens, UniProt P56524): measured values
Give bare numbers, as −log10 of the molar value.

Study these solved cases before continuing.
COc1cc2cc(c1)COc1ccccc1NC(=O)[C@@H](CCCCCC(=O)NO)OC/C=C\2    6.55
COc1cc2cc(c1)COc1ccccc1NC(=O)[C@H](CCCCCC(=O)NO)OC/C=C\2    7.10
O=C(CCCCCC1OCCCCCCOc2ccccc2NC1=O)NO (racemic)    5.92

Please go through the list and note pIC50 for each compound.
1. COc1ccc(COC(CCCCCC(=O)NO)C(=O)Nc2ccccc2)cc1 (racemic)
2. O=C(CCCCCC1OCCCCCOc2ccccc2NC1=O)NO (racemic)

OUTPUT:
6.19
5.59

====

Observed IC50 for Histone deacetylase 11 (Homo sapiens, UniProt Q96DB2), reported per entry below.
One number for each entry, in nM.

Examples with answers:
O=C(CCCCCC1OCCCCCOc2ccccc2NC1=O)NO (racemic)    1210
O=C(CCCCCC1OCCCCCCCOc2ccccc2NC1=O)NO (racemic)    546
COc1cc2cc(c1)COc1ccccc1NC(=O)[C@H](CCCCCC(=O)NO)OC/C=C\2    22.9

Provide each entry's IC50 from the list below.
1. COc1ccc(COC(CCCCCC(=O)NO)C(=O)Nc2ccccc2)cc1 (racemic)
2. COc1cc2cc(c1)COc1ccccc1NC(=O)[C@@H](CCCCCC(=O)NO)OCCC2
3. COc1cc2cc(c1)COc1ccccc1NC(=O)C(CCCCCC(=O)NO)OCCC2 (racemic)
4. COc1cc2cc(c1)COc1ccccc1NC(=O)[C@H](CCCCCC(=O)NO)OCCC2
5. O=C(CCCCCC1OCCCCCCOc2ccccc2NC1=O)NO (racemic)
6. COc1cc2cc(c1)COc1ccccc1NC(=O)C(CCCCCC(=O)NO)OC/C=C\2 (racemic)
7. COc1cc2cc(c1)COc1ccccc1NC(=O)[C@@H](CCCCCC(=O)NO)OC/C=C\2

OUTPUT:
[197, 174, 226, 103, 564, 57.7, 97.1]

====

Reported values: pIC50 for Histone deacetylase 1 (Homo sapiens, UniProt Q13547), one per item.
Answers are plain numbers, as −log10 of the molar value.

Solved cases (2 shown):
O=C(CCCCCC1OCCCCCOc2ccccc2NC1=O)NO (racemic)    6.02
COc1cc2cc(c1)COc1ccccc1NC(=O)[C@@H](CCCCCC(=O)NO)OCCC2    6.99

For each listed entry, give its pIC50.
1. COc1cc2cc(c1)COc1ccccc1NC(=O)[C@H](CCCCCC(=O)NO)OC/C=C\2
2. COc1cc2cc(c1)COc1ccccc1NC(=O)[C@H](CCCCCC(=O)NO)OCCC2
3. COc1cc2cc(c1)COc1ccccc1NC(=O)C(CCCCCC(=O)NO)OC/C=C\2 (racemic)
4. COc1ccc(COC(CCCCCC(=O)NO)C(=O)Nc2ccccc2)cc1 (racemic)
5. COc1cc2cc(c1)COc1ccccc1NC(=O)C(CCCCCC(=O)NO)OCCC2 (racemic)
6. O=C(CCCCCC1OCCCCCCCOc2ccccc2NC1=O)NO (racemic)
7. O=C(CCCCCC1OCCCCCCOc2ccccc2NC1=O)NO (racemic)
8. COc1cc2cc(c1)COc1ccccc1NC(=O)[C@@H](CCCCCC(=O)NO)OC/C=C\2

OUTPUT:
[7.50, 7.14, 7.51, 7.27, 6.69, 6.36, 6.25, 7.11]

====

So I've got a bunch of compounds here, and I need their IC50 values.
System: HCT-116
Assay: cells
Format: functional, cell-based
Settings: Homo sapiens, HCT-116, 48 h

COc1cc2cc(c1)COc1ccccc1NC(=O)[C@@H](CCCCCC(=O)NO)OC/C=C\2    640 nM
O=C(CCCCCC1OCCCCCCCOc2ccccc2NC1=O)NO (racemic)    350 nM
COc1cc2cc(c1)COc1ccccc1NC(=O)C(CCCCCC(=O)NO)OCCC2 (racemic)    690 nM
O=C(CCCCCC1OCCCCCCOc2ccccc2NC1=O)NO (racemic)    580 nM

Shift focus to the following entry.
get_value(item= COc1cc2cc(c1)COc1ccccc1NC(=O)[C@H](CCCCCC(=O)NO)OC/C=C\2 , readout=IC50) returns 690 nM

====

Target: Histone deacetylase 8 (Homo sapiens)
Sequence (Q9BY41 whole entry): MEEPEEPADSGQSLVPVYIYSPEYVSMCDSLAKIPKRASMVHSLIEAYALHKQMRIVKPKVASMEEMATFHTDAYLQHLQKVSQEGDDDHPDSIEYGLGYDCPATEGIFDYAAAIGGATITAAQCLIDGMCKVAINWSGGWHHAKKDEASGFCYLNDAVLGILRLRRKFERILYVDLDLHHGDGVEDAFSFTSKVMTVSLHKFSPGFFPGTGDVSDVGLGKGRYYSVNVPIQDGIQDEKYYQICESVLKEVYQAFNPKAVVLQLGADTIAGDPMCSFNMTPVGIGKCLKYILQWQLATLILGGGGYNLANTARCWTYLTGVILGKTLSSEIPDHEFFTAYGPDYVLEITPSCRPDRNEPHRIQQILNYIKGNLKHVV
Measured Parameter: IC50 (nM)
Give bare numbers, in nM.

Consider the following illustrative entries.
COc1ccc(COC(CCCCCC(=O)NO)C(=O)Nc2ccccc2)cc1 (racemic)    331
COc1cc2cc(c1)COc1ccccc1NC(=O)[C@@H](CCCCCC(=O)NO)OC/C=C\2    206
COc1cc2cc(c1)COc1ccccc1NC(=O)[C@@H](CCCCCC(=O)NO)OCCC2    90.7
COc1cc2cc(c1)COc1ccccc1NC(=O)[C@H](CCCCCC(=O)NO)OC/C=C\2    198

Given item O=C(CCCCCC1OCCCCCCCOc2ccccc2NC1=O)NO (racemic) , the value recorded as its IC50 is 286

====

Kindly supply the reported pIC50 values for the records listed here.
Target: Protein deacetylase HDAC6 (Homo sapiens, UniProt Q9UBN7)
Sequence (Q9UBN7 whole entry): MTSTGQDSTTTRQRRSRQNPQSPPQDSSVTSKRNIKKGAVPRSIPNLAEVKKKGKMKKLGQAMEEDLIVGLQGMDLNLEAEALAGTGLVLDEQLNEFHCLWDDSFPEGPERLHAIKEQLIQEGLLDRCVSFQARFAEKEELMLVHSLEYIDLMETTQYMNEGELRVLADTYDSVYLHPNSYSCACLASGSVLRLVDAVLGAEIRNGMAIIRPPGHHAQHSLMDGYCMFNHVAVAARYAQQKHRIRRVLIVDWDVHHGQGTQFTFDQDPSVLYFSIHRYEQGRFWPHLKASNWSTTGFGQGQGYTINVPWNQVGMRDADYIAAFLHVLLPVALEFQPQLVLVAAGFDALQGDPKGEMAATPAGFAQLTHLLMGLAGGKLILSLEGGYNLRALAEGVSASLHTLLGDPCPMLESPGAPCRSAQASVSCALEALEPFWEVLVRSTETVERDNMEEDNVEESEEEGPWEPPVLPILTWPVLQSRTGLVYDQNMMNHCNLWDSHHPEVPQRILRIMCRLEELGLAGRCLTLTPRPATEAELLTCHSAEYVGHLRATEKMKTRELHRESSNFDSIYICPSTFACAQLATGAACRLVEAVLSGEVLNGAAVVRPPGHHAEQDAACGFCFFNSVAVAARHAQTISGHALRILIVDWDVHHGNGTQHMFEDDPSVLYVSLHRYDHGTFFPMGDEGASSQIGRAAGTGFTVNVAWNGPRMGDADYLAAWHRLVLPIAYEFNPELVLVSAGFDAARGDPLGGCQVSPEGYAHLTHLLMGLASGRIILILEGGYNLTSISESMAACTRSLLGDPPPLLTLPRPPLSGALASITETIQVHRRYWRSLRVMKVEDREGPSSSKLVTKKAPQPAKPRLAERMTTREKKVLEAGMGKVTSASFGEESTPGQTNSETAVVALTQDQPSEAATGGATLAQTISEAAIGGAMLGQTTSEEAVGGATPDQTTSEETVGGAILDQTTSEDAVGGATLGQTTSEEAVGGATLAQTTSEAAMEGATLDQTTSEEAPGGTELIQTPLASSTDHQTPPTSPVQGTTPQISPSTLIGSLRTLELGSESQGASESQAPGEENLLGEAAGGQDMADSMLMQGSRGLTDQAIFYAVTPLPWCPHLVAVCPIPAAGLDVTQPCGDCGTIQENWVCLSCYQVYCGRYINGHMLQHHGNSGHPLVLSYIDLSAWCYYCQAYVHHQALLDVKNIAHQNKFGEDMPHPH
One number for each entry, as −log10 of the molar value.

Please report pIC50 for every entry that follows.
1. COc1cc2cc(c1)COc1ccccc1NC(=O)[C@H](CCCCCC(=O)NO)OCCC2
2. O=C(CCCCCC1OCCCCCCOc2ccccc2NC1=O)NO (racemic)
3. COc1cc2cc(c1)COc1ccccc1NC(=O)C(CCCCCC(=O)NO)OC/C=C\2 (racemic)
4. COc1cc2cc(c1)COc1ccccc1NC(=O)[C@@H](CCCCCC(=O)NO)OC/C=C\2
5. O=C(CCCCCC1OCCCCCCCOc2ccccc2NC1=O)NO (racemic)

OUTPUT:
[8.46, 8.00, 8.71, 7.99, 8.03]

====

Provide the recorded IC50 for the entries that follow.
Target: Histone deacetylase 7 (Homo sapiens)
Sequence (Q8WUI4 whole entry): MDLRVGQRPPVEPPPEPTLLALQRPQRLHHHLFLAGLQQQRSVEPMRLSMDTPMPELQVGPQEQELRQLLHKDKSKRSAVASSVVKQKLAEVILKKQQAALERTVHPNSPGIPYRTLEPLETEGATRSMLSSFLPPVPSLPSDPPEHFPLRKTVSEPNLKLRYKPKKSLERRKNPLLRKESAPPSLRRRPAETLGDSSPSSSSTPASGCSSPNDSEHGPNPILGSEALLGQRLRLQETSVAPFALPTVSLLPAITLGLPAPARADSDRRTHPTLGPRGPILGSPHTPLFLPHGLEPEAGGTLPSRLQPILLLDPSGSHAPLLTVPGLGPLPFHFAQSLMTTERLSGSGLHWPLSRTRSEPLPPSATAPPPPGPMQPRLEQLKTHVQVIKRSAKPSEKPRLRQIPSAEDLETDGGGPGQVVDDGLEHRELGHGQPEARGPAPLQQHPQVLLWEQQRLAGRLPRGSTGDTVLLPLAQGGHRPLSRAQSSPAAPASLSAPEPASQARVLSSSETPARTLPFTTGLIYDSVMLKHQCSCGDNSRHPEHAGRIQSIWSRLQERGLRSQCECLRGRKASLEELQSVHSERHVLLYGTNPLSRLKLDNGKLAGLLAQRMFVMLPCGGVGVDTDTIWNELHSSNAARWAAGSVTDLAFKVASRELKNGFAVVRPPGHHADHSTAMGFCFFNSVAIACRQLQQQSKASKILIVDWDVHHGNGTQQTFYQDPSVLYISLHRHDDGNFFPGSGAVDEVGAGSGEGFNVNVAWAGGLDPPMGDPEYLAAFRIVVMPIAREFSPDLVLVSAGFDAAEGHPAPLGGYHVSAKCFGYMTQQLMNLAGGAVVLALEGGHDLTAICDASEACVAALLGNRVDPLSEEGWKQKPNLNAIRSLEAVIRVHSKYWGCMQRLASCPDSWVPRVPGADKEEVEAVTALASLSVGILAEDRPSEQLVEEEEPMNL
Assay: Inhibition of human HDAC7 by fluorimetric assay
Give bare numbers, in nM.

See these solved cases before continuing.
COc1cc2cc(c1)COc1ccccc1NC(=O)C(CCCCCC(=O)NO)OC/C=C\2 (racemic)    72.6
O=C(CCCCCC1OCCCCCOc2ccccc2NC1=O)NO (racemic)    1720
COc1cc2cc(c1)COc1ccccc1NC(=O)[C@H](CCCCCC(=O)NO)OC/C=C\2    27.8

Log: Histone deacetylase 7 (Homo sapiens), molecule COc1cc2cc(c1)COc1ccccc1NC(=O)[C@@H](CCCCCC(=O)NO)OC/C=C\2 , IC50 = 180
